The origin of these recorded values is PubChem BioAssay (NCI).

# Tested on: HL-60(TB) leukemia
# assay.details: NCI tumour cell line growth inhibition, 48 h
Output Met for TGI not less than 30 µM; output Not met otherwise.

>>> class_name("COc1ccc(NS(=O)c2ccc(-c3ccccc3)cc2)cc1 (stereo not drawn)")
"Met"
>>> class_name("CCN(CC)c1ccc2c(c1)OC(=O)C(c1nnc(-c3ccc([N+](=O)[O-])cc3)o1)C2 (stereo not drawn)")
"Met"
>>> class_name("O=c1[nH][nH]c(=O)[nH]1")
"Met"
>>> class_name("[N-]=[N+]=Nc1ccc(NCCCCCC(=O)ON2C(=O)CCC2=O)c([N+](=O)[O-])c1")
"Met"
>>> class_name("O=[N+]([O-])c1cc([N+](=O)[O-])c(Cl)c(Cl)c1Cl")
"Not met"
>>> class_name("COc1ccc(/C(CCl)=C(\\Nc2ccccc2)c2ccc(OC)c(OC)c2)cc1OC")
"Met"
>>> class_name("COc1cccc(C(=O)Nc2ccc(CN3CCc4nc5cc(OC)c(OC)cc5cc43)cc2)c1")
"Not met"
>>> class_name("CC1(C)CC(=O)/C(=C/C2CCNC2=S)C(=O)N1 (stereo not drawn)")
"Met"
>>> class_name("C=C(C)C#CC(O)(C(=O)OC1CCN(C)CC1)C(C)C (stereo not drawn)")
"Met"
>>> class_name("CN(Cc1cnc(N)nc1N)c1ccc(C(=O)O)cc1")
"Met"
>>> class_name("O=C(CCCn1c(=O)c2sc3ccccc3c2n2nnc(-c3ccccc3)c12)NCCc1cnc[nH]1")
"Not met"
>>> class_name("COc1cc(/C=N/Nc2ncnc3c2cnn3C(C)C)ccc1O")
"Not met"
>>> class_name("C[C@]12CCC3c4ccc(O)cc4CC[C@H]3C1CC(=O)N(N)C2=O (stereo partly drawn)")
"Met"
>>> class_name("CO[C@H]1O[C@@H]2CO[C@@H](c3ccccc3)O[C@H]2[C@@H]2CC=CCC[C@]12O")
"Met"
>>> class_name("COc1cc(-c2nn(-c3ccc(NC(=O)Nc4ccc(Cl)c(Cl)c4)cc3)cc2-c2ccncc2)ccc1Cl")
"Met"
>>> class_name("N#CCCN(CCC#N)C(=O)c1cccc(C(=O)N(CCC#N)CCC#N)c1")
"Met"
>>> class_name("CCSc1c(C)c2c(n(Cc3ccc(OC)cc3)c1=O)Cc1ccccc1C2")
"Met"
>>> class_name("CC1(C)C(c2ccccc2)C12CCC1(C2=O)C(c2ccccc2)C1(C)C (stereo not drawn)")
"Met"
>>> class_name("CC1CC(=O)Nc2cc(Cl)ccc2N1C(=O)C1CC1 (stereo not drawn)")
"Met"
>>> class_name("Cc1nc(Cl)c(Cl)c(Cl)n1")
"Not met"
>>> class_name("CCOC(=O)N1CCN(c2c(C)nc(C)[nH]c2=O)CC1")
"Met"
>>> class_name("Cc1cc(N2CCN(C)CC2)nc(NCc2cc(Nc3ccnc4cc(Cl)ccc34)ccc2F)n1")
"Not met"
